# study_target: UniProt Q8NER1
# Sequence (Q8NER1 whole entry): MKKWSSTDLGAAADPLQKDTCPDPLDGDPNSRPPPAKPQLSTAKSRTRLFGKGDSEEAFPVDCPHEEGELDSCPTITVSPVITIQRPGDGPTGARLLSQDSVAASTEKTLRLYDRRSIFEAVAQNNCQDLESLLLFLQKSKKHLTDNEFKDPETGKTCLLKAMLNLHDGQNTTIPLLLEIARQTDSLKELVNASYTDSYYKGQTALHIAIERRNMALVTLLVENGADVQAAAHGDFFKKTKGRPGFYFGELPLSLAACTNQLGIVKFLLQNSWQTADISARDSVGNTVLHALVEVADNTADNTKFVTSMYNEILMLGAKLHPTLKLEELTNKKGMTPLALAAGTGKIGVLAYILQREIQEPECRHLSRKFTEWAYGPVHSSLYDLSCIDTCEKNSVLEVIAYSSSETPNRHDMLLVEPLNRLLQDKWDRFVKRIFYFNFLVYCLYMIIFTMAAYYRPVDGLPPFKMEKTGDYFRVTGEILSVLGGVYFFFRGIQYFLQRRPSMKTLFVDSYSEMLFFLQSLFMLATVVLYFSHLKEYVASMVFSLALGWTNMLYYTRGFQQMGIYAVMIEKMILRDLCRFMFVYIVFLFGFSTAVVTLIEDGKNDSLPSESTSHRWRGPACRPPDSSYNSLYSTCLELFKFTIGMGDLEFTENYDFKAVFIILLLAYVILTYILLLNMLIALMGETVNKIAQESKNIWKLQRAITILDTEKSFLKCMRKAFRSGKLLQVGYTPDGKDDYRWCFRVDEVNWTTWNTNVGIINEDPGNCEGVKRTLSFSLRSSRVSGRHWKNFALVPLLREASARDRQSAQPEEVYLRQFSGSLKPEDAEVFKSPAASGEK
# assay_method_text: Concentration necessary to induce a relative half-maximal response measured by the entry of [Ca2+] into human embryonic kidney HEK293 cells overexpressing the human VR1
reported_property: EC50

Take a look at these entries with their results.
>>> result("C=CCCCCCCCCC(=O)NCc1ccc(O)c(OC)c1")
"2 nM"
>>> result("C=C(C)[C@H]1CC=C(C(=O)NCc2ccc(O)c(OC)c2)CC1")
"794 nM"
>>> result("COc1cc(CNC(=O)/C=C(C)/C=C/C=C(C)/C=C/C2=C(C)CCCC2(C)C)ccc1O")
"3.98 nM"
>>> result("CCCCCCCC/C=C\\CCCCCCCCCCC(=O)NCc1ccc(O)c(OC)c1")
"3.16 nM"

Now examine the next entry.
Notebook entry, UniProt Q8NER1 assay: EC50 of CCCCCCCCC#CCCCCCCCC(=O)NCc1ccc(O)c(OC)c1 = ?
12.6 nM

* * *

# study_target: UniProtKB Q8NER1
# assay_method_text: Concentration necessary to induce a relative half-maximal response measured by the entry of [Ca2+] into human embryonic kidney HEK293 cells overexpressing the human VR1
reported_property: pEC50
Please note pEC50 is a logarithmic value: minus log10 of concentration in mol/L. Answer with that number alone.

Solved cases (2 shown):
>>> number("COc1cc(CNC(=O)/C=C(\\C)CCC[C@H](C)CCC[C@H](C)CCCC(C)C)ccc1O")
8.70
>>> number("C=C(C(=O)NCc1ccc(O)c(OC)c1)[C@H]1CC[C@]2(C)CCC[C@](C)(O)[C@H]2C1")
6.70

Query: pEC50; subject: C=C(C)[C@@H]1CC[C@]2(C(=O)NCc3ccc(O)c(OC)c3)CC[C@]3(C)[C@H](CC[C@@H]4[C@@]5(C)CC[C@H](O)C(C)(C)[C@@H]5CC[C@]43C)[C@@H]12
6.90

Which value of pEC50 has been reported for COc1cc(CNC(=O)CCCCCCCCC2CC2)ccc1O in the records?
8.50

Item CCCCCC[C@@H](O)CCCCCCCCCCC(=O)NCc1ccc(O)c(OC)c1 has what recorded pEC50?
8.30

Where do these numbers come from? They come from ChEMBL document CHEMBL1135551.
